src = the supplement of paper PMC10065799

List of phosphorylation enrichment values.
experimental system: FGFR3 (UniProt P22607)
Sequence (P22607 whole entry, looked up): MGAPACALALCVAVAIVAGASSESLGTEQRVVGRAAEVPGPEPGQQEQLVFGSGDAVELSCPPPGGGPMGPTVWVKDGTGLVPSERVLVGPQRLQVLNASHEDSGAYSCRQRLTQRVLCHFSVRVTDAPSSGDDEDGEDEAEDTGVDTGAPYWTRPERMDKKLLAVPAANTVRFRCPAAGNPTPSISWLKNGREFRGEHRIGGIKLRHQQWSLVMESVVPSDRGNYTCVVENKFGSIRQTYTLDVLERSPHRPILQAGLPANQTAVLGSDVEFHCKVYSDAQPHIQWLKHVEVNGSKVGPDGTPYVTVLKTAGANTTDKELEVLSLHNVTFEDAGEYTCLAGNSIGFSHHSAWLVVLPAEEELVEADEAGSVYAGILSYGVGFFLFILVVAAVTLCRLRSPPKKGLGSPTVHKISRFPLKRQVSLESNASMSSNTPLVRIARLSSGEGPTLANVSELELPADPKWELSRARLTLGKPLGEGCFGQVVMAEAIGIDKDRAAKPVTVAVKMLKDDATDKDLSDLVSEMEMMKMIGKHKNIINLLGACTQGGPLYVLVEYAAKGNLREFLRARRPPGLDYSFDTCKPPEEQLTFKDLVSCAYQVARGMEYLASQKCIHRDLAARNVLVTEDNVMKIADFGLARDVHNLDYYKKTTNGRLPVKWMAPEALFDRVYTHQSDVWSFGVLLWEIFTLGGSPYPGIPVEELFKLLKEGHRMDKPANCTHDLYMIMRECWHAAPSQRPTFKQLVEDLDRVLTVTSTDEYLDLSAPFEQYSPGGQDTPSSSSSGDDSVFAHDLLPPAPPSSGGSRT
method description: phosphorylation enrichment, bacterial display (enrichment ratio); higher = better substrate or ligand; peptides without Tyr show the background;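 also: 11-residue human phosphosite peptides and single-mutation variants displayed on the E. coli surface, counted by deep sequencing, each peptide's frequency after selection divided by its frequency in the unselected input library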;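 also: frequency after pTyr selection over input frequency; kinase dosed for 20-30% of maximal phosphorylation in three min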
# answer = number (no unit)

AKIDGYITSFR
0.573
KSDVMYTDWKK [ORM1_Y175_V174M]
0.682
CASQLYPRHKH [DCTN4_Y263]
0.639
GMTLSYLFREP [NDUFS8_Y74]
0.633

Incoming: Please give the documented phosphorylation enrichment of ANNEFYFRVCA
Outgoing: 0.824

Incoming: Please give the documented phosphorylation enrichment of EESSHYSTEKE [ADAR_Y587]
Outgoing: 0.578

----------
experimental system: Hck (UniProt P08631)
Sequence (P08631 whole entry, looked up): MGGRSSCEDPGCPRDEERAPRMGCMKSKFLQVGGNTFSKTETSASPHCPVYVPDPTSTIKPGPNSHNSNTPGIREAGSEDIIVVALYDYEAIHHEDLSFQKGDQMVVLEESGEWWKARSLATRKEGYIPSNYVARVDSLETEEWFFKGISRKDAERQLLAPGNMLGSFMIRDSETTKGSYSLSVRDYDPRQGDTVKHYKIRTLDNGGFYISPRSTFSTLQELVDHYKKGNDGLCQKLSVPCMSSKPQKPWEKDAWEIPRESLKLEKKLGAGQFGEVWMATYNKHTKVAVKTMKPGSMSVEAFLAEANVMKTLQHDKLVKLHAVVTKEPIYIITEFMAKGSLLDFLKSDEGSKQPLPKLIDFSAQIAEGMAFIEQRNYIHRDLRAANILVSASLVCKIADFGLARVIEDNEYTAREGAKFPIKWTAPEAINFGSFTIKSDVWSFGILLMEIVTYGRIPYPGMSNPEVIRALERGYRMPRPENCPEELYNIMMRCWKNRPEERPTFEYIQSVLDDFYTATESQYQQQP
method description: phosphorylation enrichment, bacterial display (enrichment ratio); higher = better substrate or ligand; peptides without Tyr show the background
Class (by phosphorylation enrichment) -- low group: < 0.5; middle group: ≥ 0.5 and < 0.7; high group: ≥ 0.7

Reference set (5 entries):
GESLTYASTTF [C1orf162_Y120]
high group
SGVNKYSTAFG [GJB3_Y16]
low group
QRRFVYFFSFL [PTEN_Y176_YF]
middle group
FSIDHYLGKEM [G6PD_Y202_R198S_YF]
middle group
LYSDHYSPSGR [TMPRSS12_Y23]
high group

Incoming: Dear colleague, I would appreciate it if you could identify the bin for LIQRNYKLAAQ [ALPK2_Y1975] and reply at your convenience.
Outgoing: high group

Incoming: Dear colleague, I would appreciate it if you could identify the bin for GQDLLYEDEDL [PACS1_Y303_F302L] and reply at your convenience.
Outgoing: middle group

Incoming: Dear colleague, I would appreciate it if you could identify the bin for DTNIAYWLHPR [POMT1_Y581] and reply at your convenience.
Outgoing: middle group

Incoming: Dear colleague, I would appreciate it if you could identify the bin for ALECLYRREKR [TEKT5_Y195_H196R] and reply at your convenience.
Outgoing: middle group

Incoming: Dear colleague, I would appreciate it if you could identify the bin for FLAVGYHKTHI [IDS_Y225_P228T] and reply at your convenience.
Outgoing: low group

Incoming: Dear colleague, I would appreciate it if you could identify the bin for NACGLYHTMNG [GATA5_Y216_K218T] and reply at your convenience.
Outgoing: high group

Incoming: Dear colleague, I would appreciate it if you could identify the bin for LAAAGYDVKKN [H1-3_Y72_E75K] and reply at your convenience.
Outgoing: low group

Incoming: Dear colleague, I would appreciate it if you could identify the bin for KSDVMYTDWKK [ORM1_Y175_V174M] and reply at your convenience.
Outgoing: high group

Incoming: Dear colleague, I would appreciate it if you could identify the bin for FIGVTYKNKED [PDGFRA_Y993_E996K_YF] and reply at your convenience.
Outgoing: low group

Incoming: Dear colleague, I would appreciate it if you could identify the bin for WFPSTYVEEDE [VAV3_Y842] and reply at your convenience.
Outgoing: high group

Incoming: Dear colleague, I would appreciate it if you could identify the bin for EMTAEYACTRK [ACAD9_Y325] and reply at your convenience.
Outgoing: middle group

Incoming: Dear colleague, I would appreciate it if you could identify the bin for TSSAIYMNLAS [GATAD2B_Y317] and reply at your convenience.
Outgoing: high group

Incoming: Dear colleague, I would appreciate it if you could identify the bin for VTSLKYSTPPF [BRIP1_Y916_S919P_YF] and reply at your convenience.
Outgoing: middle group

Incoming: Dear colleague, I would appreciate it if you could identify the bin for DVFRQYASLTG [GANAB_Y379] and reply at your convenience.
Outgoing: low group

Incoming: Dear colleague, I would appreciate it if you could identify the bin for KWHREYNFKYV [RICTOR_Y835_S837F] and reply at your convenience.
Outgoing: low group

Incoming: Dear colleague, I would appreciate it if you could identify the bin for AAILGYCHGEA [XPC_Y669_R671H] and reply at your convenience.
Outgoing: middle group

Incoming: Dear colleague, I would appreciate it if you could identify the bin for KFDLMYAKWAF [TUBA3E_Y399] and reply at your convenience.
Outgoing: high group

Incoming: Dear colleague, I would appreciate it if you could identify the bin for SLLTDCSPQLQ [OTC_Y345_Y345C] and reply at your convenience.
Outgoing: middle group

Incoming: Dear colleague, I would appreciate it if you could identify the bin for VGTKQYMAPEV [ACVRL1_Y375_R374Q] and reply at your convenience.
Outgoing: low group

Incoming: Dear colleague, I would appreciate it if you could identify the bin for FVHDNYVIWRT [CPS1_Y1450_R1453W] and reply at your convenience.
Outgoing: high group
